Test system full-length USP7 (Homo sapiens (Human), UniProt Q93009), pIC50 listed for each of the molecules.
pIC50: −log10 of the molar value. Counter-ions that a name gives are not always drawn.

{"columns": ["Molecule", "pIC50"],
 "data": [
  ["Cc1nc(C(F)(F)F)cc(-c2ccnc3cc(CN4C(=O)C5C(C4=O)C5(C)C)sc23)c1NC(=O)C1CCNC1 (racemic) [Example 64, 2,2,2-trifluoroacetate]", "5.00 to 6.00"],
  ["Cc1cc(C#N)nc(-c2ccnc3cc(CN4C(=O)C5C(C4=O)C5(C)C)sc23)c1C(=O)N1CC[C@H](N(C)C)C1 (stereo partly drawn) [Example 44, hydrochloride]", "5.00 to 6.00"],
  ["Cc1cc(Cl)cc(-c2ccnc3cc(CC4NCCNC4=O)sc23)c1O[C@H]1CCCNC1 (stereo partly drawn) [Example 178, hydrochloride]", "> 6.30"],
  ["Cc1cc(C(F)(F)F)nc(-c2ccnc3cc(CN4C(=O)N(C)C5(CC5)C4=O)sc23)c1NC1CCNC1 (racemic) [Example 145, dihydrochloride]", "> 6.30"],
  ["Cc1cc(C#N)nc(-c2ccnc3cc(CN4C(=O)C5C(C4=O)C5(C)C)sc23)c1C(=O)N1CCN(C)C[C@@H]1C (stereo partly drawn) [Example 52, dihydrochloride]", "> 6.30"]
]}

Next up:
Fill in the recorded pIC50 for this molecule, with full-length USP7 (Homo sapiens (Human), UniProt Q93009) as test system: Cc1cc(C(F)(F)F)nc(-c2ccnc3cc(CN4C(=O)C5C(C4=O)C5(C)C)sc23)c1C(=O)N1CC[C@H](NC(=O)[C@H](C)N)C1 (stereo partly drawn) [Example 110, dihydrochloride] 6.00 to 6.30

Reference source: patent US12404279B2
